Target: human FSH receptor (Homo sapiens, UniProt P23945)
Sequence (P23945 18-695): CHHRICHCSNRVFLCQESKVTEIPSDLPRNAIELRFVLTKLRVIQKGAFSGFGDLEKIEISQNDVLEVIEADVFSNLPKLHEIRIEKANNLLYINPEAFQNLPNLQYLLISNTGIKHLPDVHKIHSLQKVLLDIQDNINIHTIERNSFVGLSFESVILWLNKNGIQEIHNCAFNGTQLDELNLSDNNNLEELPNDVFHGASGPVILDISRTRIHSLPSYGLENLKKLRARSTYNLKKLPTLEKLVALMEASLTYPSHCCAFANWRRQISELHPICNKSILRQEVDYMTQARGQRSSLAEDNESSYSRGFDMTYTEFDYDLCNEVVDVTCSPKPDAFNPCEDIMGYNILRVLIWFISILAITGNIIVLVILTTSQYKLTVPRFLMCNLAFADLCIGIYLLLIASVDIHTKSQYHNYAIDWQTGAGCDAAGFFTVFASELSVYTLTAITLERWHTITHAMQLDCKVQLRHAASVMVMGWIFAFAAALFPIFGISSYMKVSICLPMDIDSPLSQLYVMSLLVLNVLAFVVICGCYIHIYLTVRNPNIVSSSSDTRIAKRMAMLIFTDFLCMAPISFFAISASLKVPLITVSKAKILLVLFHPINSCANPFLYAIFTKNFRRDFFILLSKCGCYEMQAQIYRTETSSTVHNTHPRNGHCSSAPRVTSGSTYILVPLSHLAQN
Experiment: CHO-FSH in vitro bioactivity (CRE-luciferase reporter)
Conditions: CHO cells transfected with the human FSH receptor and luciferase reporter gene; read-out: EC50 CHO FSHR
recorded_metric: EC50 (nM)

mol_smiles	recorded_metric	reading_unit	observed_value
CSc1nc(-c2cccc(NC(=O)CN3CCCC3)c2)c2c(N)c(C(=O)NC(C)(C)C)sc2n1	EC50	nM	480
CSc1nc(-c2cccc(NC(=O)CN3CCOCC3)c2)c2c(N)c(C(=O)NC(C)(C)C)sc2n1	EC50	nM	42
CSc1nc(-c2cccc(NC(=O)CN3CCNCC3)c2)c2c(N)c(C(=O)NC(C)(C)C)sc2n1	EC50	nM	150
CSc1nc(-c2cccc(NC(=O)CN3CCC3)c2)c2c(N)c(C(=O)NC(C)(C)C)sc2n1	EC50	nM	462
CSc1nc(-c2cccc(NC(=O)CN3CCCCC3)c2)c2c(N)c(C(=O)NC(C)(C)C)sc2n1	EC50	nM	201
CSc1nc(-c2cccc(NC(=O)CN3CCSCC3)c2)c2c(N)c(C(=O)NC(C)(C)C)sc2n1	EC50	nM	1040

* * *

Target: UniProtKB P22888
Sequence (P22888 27-699): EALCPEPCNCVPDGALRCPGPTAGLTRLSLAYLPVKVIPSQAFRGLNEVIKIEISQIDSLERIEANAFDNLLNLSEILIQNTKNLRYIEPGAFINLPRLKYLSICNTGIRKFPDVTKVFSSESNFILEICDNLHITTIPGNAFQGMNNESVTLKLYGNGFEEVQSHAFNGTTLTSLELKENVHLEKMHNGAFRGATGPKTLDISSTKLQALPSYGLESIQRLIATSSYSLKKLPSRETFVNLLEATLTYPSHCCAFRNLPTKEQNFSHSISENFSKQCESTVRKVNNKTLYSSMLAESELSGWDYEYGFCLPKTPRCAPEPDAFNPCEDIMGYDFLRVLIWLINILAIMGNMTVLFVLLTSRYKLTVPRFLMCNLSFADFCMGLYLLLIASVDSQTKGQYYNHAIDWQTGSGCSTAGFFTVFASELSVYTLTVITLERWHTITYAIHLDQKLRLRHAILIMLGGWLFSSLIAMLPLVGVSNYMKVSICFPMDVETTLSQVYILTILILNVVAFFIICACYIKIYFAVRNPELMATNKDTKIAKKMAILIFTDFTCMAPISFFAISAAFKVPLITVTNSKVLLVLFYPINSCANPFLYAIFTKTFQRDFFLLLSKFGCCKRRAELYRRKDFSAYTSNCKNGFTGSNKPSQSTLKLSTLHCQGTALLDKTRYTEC
Assay: CHO-LH in vitro bioactivity (CRE-luciferase reporter)
Conditions: CHO cells stably transfected with the human LH receptor, read-out: EC50 CHO LHR
recorded_metric: EC50 (nM)

compound	recorded_metric	reading_unit	observed_value
CSc1nc(-c2cccc(NC(=O)CN3CCSCC3)c2)c2c(N)c(C(=O)NC(C)(C)C)sc2n1 [Example 3]	EC50	nM	8.03
CSc1nc(-c2cccc(NC(=O)CN3CCCCC3)c2)c2c(N)c(C(=O)NC(C)(C)C)sc2n1 [Example 4]	EC50	nM	6.63
CSc1nc(-c2cccc(NC(=O)CN3CCNCC3)c2)c2c(N)c(C(=O)NC(C)(C)C)sc2n1 [Example 6]	EC50	nM	3.17
CSc1nc(-c2cccc(NC(=O)CN3CCC3)c2)c2c(N)c(C(=O)NC(C)(C)C)sc2n1 [Example 1]	EC50	nM	3.86
CSc1nc(-c2cccc(NC(=O)CN3CCCC3)c2)c2c(N)c(C(=O)NC(C)(C)C)sc2n1 [Example 5]	EC50	nM	6.68
CSc1nc(-c2cccc(NC(=O)CN3CCOCC3)c2)c2c(N)c(C(=O)NC(C)(C)C)sc2n1 [Example 2]	EC50	nM	2.24

Values were extracted from patent US7317006B2.
